assay.system: wild-type Choristoneura fumiferana EcR (D, E and F domains) (Choristoneura fumiferana, UniProt O77240)
Type: cell-based
test.context: R; WT-CtEcR, 3T3 Cells; relative to GS-E ligand
In this section, each of the compounds is paired with its reported RMFI (relative maximum fold induction).
measured.parameter: RMFI (relative maximum fold induction)

>  <mol.smiles>
CCC[C@@H](N(NC(=O)c1ccccc1Cl)C(=O)c1cc(C)cc(C)c1)C(C)(C)C

>  <number>
0.88

$$$$
>  <mol.smiles>
CCC[C@H](C1CCCCC1)N(NC(=O)c1ccc(CC)cc1)C(=O)c1cc(C)cc(C)c1

>  <number>
0.26

$$$$
>  <mol.smiles>
CCC[C@@H](N(NC(=O)c1cccc(C)c1)C(=O)c1cc(C)cc(C)c1)C(C)(C)C

>  <number>
0.86

$$$$
>  <mol.smiles>
CCC[C@@H](N(NC(=O)c1ccc(Cl)cc1)C(=O)c1cc(C)cc(C)c1)C(C)(C)C

>  <number>
0.74

$$$$
>  <mol.smiles>
CCC[C@H](C1CCCCC1)N(NC(=O)c1ccccc1)C(=O)c1cc(C)cc(C)c1

>  <number>
0.30

$$$$
>  <mol.smiles>
CCC[C@H](C1CCCCC1)N(NC(=O)c1cccc(OC)c1)C(=O)c1cc(C)cc(C)c1

>  <number>
0.19

$$$$
>  <mol.smiles>
CCC[C@@H](N(NC(=O)c1ccc2c(c1C)OCO2)C(=O)c1cc(C)cc(C)c1)C(C)(C)C

>  <number>
1.02

$$$$
>  <mol.smiles>
CCC[C@@H](N(NC(=O)c1cccnc1Cl)C(=O)c1cc(C)cc(C)c1)C(C)(C)C

>  <number>
0.70

$$$$
